Tested on: Mus musculus
Assay: Antidepressant-like activity in Swiss albino mouse assessed as decrease in immobility time at 0.5 mg/kg, ip measured for 5 mins by forced swimming test relative to control
Format: functional
Conditions: route intraperitoneal
Reported Metric: inhibition in vivo at 0.5 mg/kg (%)
Answers are plain numbers, in %.

- COc1ccc(-c2cc3cc(C4C(C#N)=C(N)OC5=C4C(=O)CC(C)(C)C5)cc(C(C)(C)C)c3oc2=O)cc1 (centres undefined): 27.2
- COc1ccc(-c2cc3cc(C4C(C#N)=C(N)OC5=C4C(=O)CCC5)cc(C(C)(C)C)c3oc2=O)cc1OC (centres undefined): -16.6
- COc1cc(-c2cc3cc(C4C(C#N)=C(N)OC5=C4C(=O)CCC5)cc(C(C)C)c3oc2=O)cc(OC)c1OC (centres undefined): 31.9

Provide value of inhibition in vivo at 0.5 mg/kg for this record tested with Mus musculus: CCC(C)c1cc(C2C(C#N)=C(N)OC3=C2C(=O)CC(C)(C)C3)cc2cc(-c3cc(OC)c(OC)c(OC)c3)c(=O)oc12 (centres undefined)
28.2

Value source: ChEMBL document CHEMBL3351975
